# protocol: Intense light irradiation test (4500LX ± 500LX), stability study
# Format: physicochemical
# assay-context: Day 10, cell wraps, first line given
quantity: Appearance Day 10

Recorded Appearance Day 10, per entry:
COc1ccc(NS(=O)(=O)c2cc(C)c3cc(C(C)C)ccc(C)c2-3)c(OC)c1: purple
Cc1cc(S(=O)(=O)NCC(C)C)c2c(C)ccc(C(C)C)cc1-2: purple
Cc1cc(S(=O)(=O)Nc2cccc(Br)c2)c2c(C)ccc(C(C)C)cc1-2: purple
Cc1cc(S(=O)(=O)NC2CCCCC2)c2c(C)ccc(C(C)C)cc1-2: purple

Field Appearance Day 10 (entry `Cc1cc(S(=O)(=O)NCc2ccccc2)c2c(C)ccc(C(C)C)cc1-2` ) reads blue

Field Appearance Day 10 (entry Cc1cc(S(=O)(=O)[O-])c2c(C)ccc(C(C)C)cc1-2.[Na+] [Azulene sulfonate sodium, reference compound] ) reads light

Field Appearance Day 10 (entry `Cc1cc(S(=O)(=O)NC(C)C)c2c(C)ccc(C(C)C)cc1-2` ) reads purple

Field Appearance Day 10 (entry `CCCNS(=O)(=O)c1cc(C)c2cc(C(C)C)ccc(C)c1-2` ) reads purple

Field Appearance Day 10 (entry `Cc1cc(S(=O)(=O)Nc2cccc3ccccc23)c2c(C)ccc(C(C)C)cc1-2` ) reads purple

Field Appearance Day 10 (entry `Cc1ccc(NS(=O)(=O)c2cc(C)c3cc(C(C)C)ccc(C)c2-3)cc1` ) reads purple

Field Appearance Day 10 (entry `Cc1cc(S(=O)(=O)Nc2ccc(N)cc2)c2c(C)ccc(C(C)C)cc1-2` ) reads purple

Field Appearance Day 10 (entry `CCNS(=O)(=O)c1cc(C)c2cc(C(C)C)ccc(C)c1-2` ) reads blue

Field Appearance Day 10 (entry `Cc1cc(S(=O)(=O)Nc2ccc(Cl)cc2)c2c(C)ccc(C(C)C)cc1-2` ) reads purple

###

# protocol: Intense light irradiation test (4500LX ± 500LX), stability study
# Type: physicochemical
# assay-context: Day 10
quantity: Melting point Day 10

Recorded Melting point Day 10, per entry:
Cc1cc(S(=O)(=O)Nc2ccc(N)cc2)c2c(C)ccc(C(C)C)cc1-2: 87.5-89.5 °C
Cc1cc(S(=O)(=O)Nc2ccc(Cl)cc2)c2c(C)ccc(C(C)C)cc1-2: 134.0-135.5 °C
CCCNS(=O)(=O)c1cc(C)c2cc(C(C)C)ccc(C)c1-2: 57.5-61.5 °C
Cc1cc(S(=O)(=O)NCC(C)C)c2c(C)ccc(C(C)C)cc1-2: 115.0-117.5 °C

Field Melting point Day 10 (entry `Cc1cc(S(=O)(=O)Nc2cccc3ccccc23)c2c(C)ccc(C(C)C)cc1-2` ) reads 140.0-142.0 °C

###

# protocol: High humidity test (25° C., relative humidity 90% ± 5%), stability study;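 also: samples kept uncovered in sealed humidity desiccators, appearance judged mainly by colour change, melting point on an automatic apparatus, TLC checked for extra spots versus start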
# Assay type: physicochemical
# assay-context: RH 90% ± 5%, Day 10, cell wraps, first line given
quantity: Appearance Day 10

Recorded Appearance Day 10, per entry:
Cc1cc(S(=O)(=O)Nc2ccc(Cl)cc2)c2c(C)ccc(C(C)C)cc1-2 [4k]: purple
Cc1ccc(NS(=O)(=O)c2cc(C)c3cc(C(C)C)ccc(C)c2-3)cc1 [4g]: purple
Cc1cc(S(=O)(=O)[O-])c2c(C)ccc(C(C)C)cc1-2.[Na+] [Azulene sulfonate sodium, reference compound]: light
Cc1cc(S(=O)(=O)Nc2cccc(Br)c2)c2c(C)ccc(C(C)C)cc1-2 [4a]: purple
Cc1cc(S(=O)(=O)NCC(C)C)c2c(C)ccc(C(C)C)cc1-2 [4e]: purple

Field Appearance Day 10 (entry Cc1cc(S(=O)(=O)NC2CCCCC2)c2c(C)ccc(C(C)C)cc1-2 [4i] ) reads purple

Field Appearance Day 10 (entry Cc1cc(S(=O)(=O)Nc2ccc(N)cc2)c2c(C)ccc(C(C)C)cc1-2 [4l] ) reads purple

Field Appearance Day 10 (entry Cc1cc(S(=O)(=O)NC(C)C)c2c(C)ccc(C(C)C)cc1-2 [4c] ) reads purple

Field Appearance Day 10 (entry CCCNS(=O)(=O)c1cc(C)c2cc(C(C)C)ccc(C)c1-2 [4f] ) reads purple

Field Appearance Day 10 (entry Cc1cc(S(=O)(=O)NCc2ccccc2)c2c(C)ccc(C(C)C)cc1-2 [4j] ) reads blue

Field Appearance Day 10 (entry CCNS(=O)(=O)c1cc(C)c2cc(C(C)C)ccc(C)c1-2 [4h] ) reads blue

Field Appearance Day 10 (entry Cc1cc(S(=O)(=O)Nc2cccc3ccccc23)c2c(C)ccc(C(C)C)cc1-2 [4d] ) reads purple

Field Appearance Day 10 (entry COc1ccc(NS(=O)(=O)c2cc(C)c3cc(C(C)C)ccc(C)c2-3)c(OC)c1 [4b] ) reads purple
